For D(2) dopamine receptor (Rattus norvegicus, UniProt P61169), measured pKi is reported for the entries below.
Entry type: numeric. Quantity: pKi, the -log10 of concentration in molar units.

Solved cases (3 shown):
| COMPOUND | ASSAY SYSTEM | pKi |
| --- | --- | --- |
| CCCN(CCN1CCN(c2ccccc2OC)CC1)C1CCc2nc(N)sc2C1 (single isomer, unassigned; (-)) | D(2) dopamine receptor (Rattus norvegicus, UniProt P61169) | 6.54 |
| CCCN(CCN1CCN(c2ccccc2)CC1)C1CCc2nn[se]c2C1 (centres undefined) | D(2) dopamine receptor (Rattus norvegicus, UniProt P61169) | 6.72 |
| CCCN(CCN1CCN(c2cccc(Cl)c2Cl)CC1)C1CCc2nc(N)sc2C1 (stereo in doubt; 6c) | D(2) dopamine receptor (Rattus norvegicus, UniProt P61169) | 7.16 |

Find pKi for CCCN(CCN1CCN(c2ccccc2)CC1)C1CCc2ccc(O)cc2C1 (centres undefined) on D(2) dopamine receptor (Rattus norvegicus, UniProt P61169) and write it down.
Sequence (P61169 whole entry): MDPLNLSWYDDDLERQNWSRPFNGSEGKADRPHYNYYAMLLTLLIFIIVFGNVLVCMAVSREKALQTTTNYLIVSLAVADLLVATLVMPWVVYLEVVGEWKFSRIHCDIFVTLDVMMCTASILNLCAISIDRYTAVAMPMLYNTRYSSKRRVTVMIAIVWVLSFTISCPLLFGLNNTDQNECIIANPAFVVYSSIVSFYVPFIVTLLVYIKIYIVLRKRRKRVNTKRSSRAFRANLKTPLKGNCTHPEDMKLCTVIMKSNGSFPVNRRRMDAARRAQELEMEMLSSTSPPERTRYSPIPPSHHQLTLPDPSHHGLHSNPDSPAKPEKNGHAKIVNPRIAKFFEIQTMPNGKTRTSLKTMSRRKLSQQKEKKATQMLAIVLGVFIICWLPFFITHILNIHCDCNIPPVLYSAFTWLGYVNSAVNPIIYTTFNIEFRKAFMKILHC
6.85
